- target: T1, Human EphA2 (Ecto), C-terminal polyHis (Human, UniProt P29317 24-537)
- T1 construct: extracellular domain; R&D systems 3035-A2 or in-house
- T1 sequence (P29317 24-537): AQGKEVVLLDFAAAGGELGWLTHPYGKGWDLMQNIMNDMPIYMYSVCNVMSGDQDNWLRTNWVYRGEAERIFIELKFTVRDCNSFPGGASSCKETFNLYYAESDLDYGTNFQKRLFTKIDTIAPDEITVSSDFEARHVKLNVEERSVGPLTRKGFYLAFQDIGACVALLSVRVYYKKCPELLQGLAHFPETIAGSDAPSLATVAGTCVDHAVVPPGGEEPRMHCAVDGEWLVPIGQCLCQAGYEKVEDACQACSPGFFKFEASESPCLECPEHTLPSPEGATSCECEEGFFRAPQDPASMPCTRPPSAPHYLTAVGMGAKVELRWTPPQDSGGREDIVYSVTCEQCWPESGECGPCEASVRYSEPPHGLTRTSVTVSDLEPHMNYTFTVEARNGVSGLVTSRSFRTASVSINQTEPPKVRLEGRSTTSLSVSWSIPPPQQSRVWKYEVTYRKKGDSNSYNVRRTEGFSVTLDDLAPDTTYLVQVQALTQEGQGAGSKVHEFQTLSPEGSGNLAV
- assay text: FP competition vs Reference Compound C
So I've got a bunch of binders here, and I need their Ki values.
Numbers only, in µM.

Batch request: Ki per item, same order as input.
1. AXDCPLVNPLCLHPGWTC (not fully specified; as BCY6014 (N-terminal (β-Ala)-Sar10; HArg; TATA scaffold on the 3 Cys) + DM1-SS-, Bicycle drug conjugate (BDC)) [BCY6031]
2. AXDCPLVNPLCLHPGWTC (not fully specified; as BCY6014 (N-terminal (β-Ala)-Sar10; HArg; TATA scaffold on the 3 Cys) + DM1-SS-(Me)-, Bicycle drug conjugate (BDC)) [BCY6032]

0.0126
0.0114

Data provenance is patent US20240000957A1.
